Origin of the recorded values: patent US20140170096A1

// values below are reported Viral enrichment factor (VEF)
Tested on: viruses in water surrounding coral nubbins
protocol notes: Viral abundance and viral enrichment in seawater surrounding coral nubbins (microcosm incubation)
particulars: ratio of viral abundances, end vs start of incubation
The reply should be a number, written without any unit.

Some solved entries appear below for comparison.
CCCCCCOC(=O)c1ccccc1C(=O)c1ccc(N(CC)CC)cc1O    7.44
CCCCC(CC)COC(=O)c1ccc(Nc2nc(Nc3ccc(C(=O)OCC(CC)CCCC)cc3)nc(Nc3ccc(C(=O)OCC(CC)CCCC)cc3)n2)cc1 (stereo not shown)    12.58
CC(=O)Oc1c(C)c(C)c2c(c1C)CCC(C)(CCC[C@H](C)CCC[C@H](C)CCCC(C)C)O2 (mixture of isomers) [System D17, DL-tocopherol-acetate]    8.36
CC1=C(/C=C/C(C)=C/C=C/C(C)=C/CO)C(C)(C)CCC1    8.09
CC(C)(C)CC(C)(C)c1cc(Cc2cc(C(C)(C)CC(C)(C)C)cc(-n3nc4ccccc4n3)c2O)c(O)c(-n2nc3ccccc3n2)c1    6.16
CCCCCCCCCCCCCCCC(=O)OC/C=C(C)/C=C/C=C(C)/C=C/C1=C(C)CCCC1(C)C [System D19, retinyl palmitate]    18.92

// next entry
# Viral enrichment factor (VEF) (compound: `Cc1c(C)c2c(c(C)c1O)CC[C@@](C)(CCC[C@H](C)CCC[C@H](C)CCCC(C)C)O2` ) is 4.54

----------
Measured Percentage of pale zooxanthellae released by item
Tested on: symbiotic zooxanthellae released from coral nubbins
protocol notes: Zooxanthellae counts: zooxanthellae released in water surrounding coral nubbins
Type: in vivo, Acropora sp.
particulars: of total released, end of incubation

Answered cases to consult:
CC1=C(/C=C/C(C)=C/C=C/C(C)=C/CO)C(C)(C)CCC1    49%
CO[C@@]12[C@H](COC(N)=O)C3=C(C(=O)C(C)=C(N)C3=O)N1C[C@@H]1N[C@@H]12 [MITO, Mitomycin C, reference compound]    24%
CC(C)(C)CC(C)(C)c1cc(Cc2cc(C(C)(C)CC(C)(C)C)cc(-n3nc4ccccc4n3)c2O)c(O)c(-n2nc3ccccc3n2)c1    38%

With those in mind, consider the next molecule.
Reported symbiotic zooxanthellae released from coral nubbins Percentage of pale zooxanthellae released for item CCCCCCCCCCCCCCCC(=O)OC/C=C(C)/C=C/C=C(C)/C=C/C1=C(C)CCCC1(C)C [System D19, retinyl palmitate] was 43%

----------
Parameter Percentage of pale zooxanthellae released: see the listing below.
Test system: symbiotic zooxanthellae released from coral nubbins
protocol notes: Zooxanthellae counts: zooxanthellae released in water surrounding coral nubbins
Format: in vivo, Acropora sp.
particulars: of total released, end of incubation
In your response, the unit should come after the numeric value.

Worked set:
CCCCCCOC(=O)c1ccccc1C(=O)c1ccc(N(CC)CC)cc1O    54%
CC(=O)Oc1c(C)c(C)c2c(c1C)CCC(C)(CCC[C@H](C)CCC[C@H](C)CCCC(C)C)O2 (mixture of isomers) [System D17, DL-tocopherol-acetate]    42%
CCCCC(CC)COC(=O)c1ccc(Nc2nc(Nc3ccc(C(=O)OCC(CC)CCCC)cc3)nc(Nc3ccc(C(=O)OCC(CC)CCCC)cc3)n2)cc1 (stereo not shown)    44%

From here, focus on the item given below.
Noted for `Cc1c(C)c2c(c(C)c1O)CC[C@@](C)(CCC[C@H](C)CCC[C@H](C)CCCC(C)C)O2` : its Percentage of pale zooxanthellae released reads 47%
